B1: RAB22A (parent)
chain: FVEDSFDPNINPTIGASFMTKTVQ

Variants of: B1
run-description: protein stability index of a GFP-peptide fusion (GPS, HEK-293T) (PSI 1-6); higher = more stable;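 also: lentivirally expressed fusions sorted by FACS into six bins by GFP to DsRed ratio, PSI derived from sequencing read proportions per bin multiplied by bin number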
measurement-conditions: c terminus: a fixed tail appended

[
  {
    "variant-id": "N9S",
    "protein stability index": 2.51
  },
  {
    "variant-id": "I14D",
    "protein stability index": 3.19
  },
  {
    "variant-id": "I14Q",
    "protein stability index": 2.78
  },
  {
    "variant-id": "F18E",
    "protein stability index": 3.37
  },
  {
    "variant-id": "D7L",
    "protein stability index": 2.15
  },
  {
    "variant-id": "G15Q",
    "protein stability index": 2.38
  },
  {
    "variant-id": "T22M",
    "protein stability index": 2.11
  },
  {
    "variant-id": "I10A",
    "protein stability index": 2.48
  },
  {
    "variant-id": "S17I",
    "protein stability index": 2.25
  },
  {
    "variant-id": "D4F",
    "protein stability index": 3.14
  },
  {
    "variant-id": "S17V",
    "protein stability index": 1.74
  },
  {
    "variant-id": "T13P",
    "protein stability index": 2.67
  },
  {
    "variant-id": "F6P",
    "protein stability index": 2.74
  },
  {
    "variant-id": "N9L",
    "protein stability index": 1.66
  },
  {
    "variant-id": "N11R",
    "protein stability index": 1.75
  },
  {
    "variant-id": "V2D",
    "protein stability index": 4.03
  },
  {
    "variant-id": "V23N",
    "protein stability index": 2.44
  },
  {
    "variant-id": "T13N",
    "protein stability index": 2.19
  },
  {
    "variant-id": "T13W",
    "protein stability index": 3.05
  }
]
